Test: GSH reactivity in PBS assessed as GSH adduct formation by measuring half life by HPLC-MS analysis
Type: ADME
Readout kind: t1/2 (h)
Response body: numeric value in h, unit text excluded.

Supply measured t1/2 of C=C1CC[C@@H]2[C@](C)(CO)[C@H](O)CC[C@@]2(C)[C@@H]1C/C=C1/C(=O)OC[C@H]1O [ANDROGRAPHOLIDE] in your reply.
5.46

Identify measured t1/2 associated with C=C1CC[C@@H]2[C@](C)(CO)[C@H](O)CC[C@@]2(C)[C@@H]1C/C=C1\C=COC1=O
0.05

Given C=C1CC[C@@H]2[C@](C)(CO)[C@H](O)CC[C@@]2(C)[C@@H]1C/C=C/C(C)=O , respond with its t1/2.
6.47

Return t1/2 for the following molecule: C=C1CC[C@@H]2[C@](C)(CO)[C@H](O)CC[C@@]2(C)[C@@H]1C/C=C/C(=O)c1ccccc1
2.12
